- Target Of Assay: T1, recombinant hMCAM-His (human, UniProt P43121 24-559)
- T1 construct: not shown: His tag
- T1 chain: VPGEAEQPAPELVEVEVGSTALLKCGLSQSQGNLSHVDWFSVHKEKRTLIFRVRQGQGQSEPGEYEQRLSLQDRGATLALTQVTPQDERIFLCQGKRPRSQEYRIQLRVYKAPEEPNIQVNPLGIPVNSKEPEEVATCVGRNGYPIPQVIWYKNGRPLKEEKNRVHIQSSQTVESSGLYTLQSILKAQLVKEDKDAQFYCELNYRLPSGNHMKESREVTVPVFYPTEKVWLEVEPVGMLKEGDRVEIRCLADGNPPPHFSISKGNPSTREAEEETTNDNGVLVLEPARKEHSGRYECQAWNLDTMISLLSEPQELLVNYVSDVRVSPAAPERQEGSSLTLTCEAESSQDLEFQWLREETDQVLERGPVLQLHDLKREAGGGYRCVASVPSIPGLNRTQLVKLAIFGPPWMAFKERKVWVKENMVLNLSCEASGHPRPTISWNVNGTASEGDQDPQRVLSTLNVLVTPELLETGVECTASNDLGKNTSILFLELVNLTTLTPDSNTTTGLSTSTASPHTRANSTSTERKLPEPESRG
- Assay Info: competitive ELISA on hMCAM-His, competitor biotinylated rodent or chimeric 2107; Expt. #1; vs rodent 2107
Measured Metric: fold over rodent (competitive ELISA) (fold)
State just the number; it will be interpreted in fold.

Some binders with recorded fold over rodent (competitive ELISA):
- Binder: "rat anti-human MCAM monoclonal antibody clone 2107.4.10 (antibody, V domains shown, rat hybridoma antibody; elsewhere '83 or 84'); also called rodent 2107; murine 2107.4.10.18 anti-MCAM antibody) VH: QVQLKESGPGLVQSSQTLSLTCTVSGFSLTSNGVSWVRQPPGKGLEWIAAISSGGSTYYNSAFKSRLSISRNTSKSQVLLKMNSLQTEDTGMYFCARHRPFYFDYWGQGVMVTVSS VL: DIQVTQSPSLLSASVGDRVTLNCKGSQNIYKSLAWFRLKRGEAPKLLIYDANSLQTGIPSRFSGSGSGTDFTLTITSLQPEDVATYFCQQYYSGYTFGAGTKLELK"
  fold over rodent (competitive ELISA) [fold]: 1
- Binder: "h2107_VH3 + h2107_VL2 (antibody, human IgG1, V domains shown, also called VH3VL2) VH: QVTLKESGPVLVKPTETLTLTCTVSGFSLTSNGVSWVRQPPGKALEWIAAISSGGSTYYNSAFKSRLTISRNTSKSQVVLTMTNMDPVDTATYYCARHRPFYFDYWGQGTLVTVSS VL: DIQMTQSPSSLSASVGDRVTITCKGSQNIYKSLAWFQLKPGKVPKLLIYDANSLQTGIPSRFSGSGSGTDFTLTISSLQPEDVATYYCQQYYSGYTFGGGTKVEIK"
  fold over rodent (competitive ELISA) [fold]: 1.62

# context switch: different binder, same fold over rodent (competitive ELISA)
Quick check: fold over rodent (competitive ELISA) of h2107_VH2 + h2107_VL2 (antibody, human IgG1, V domains shown, also called h2107VH2VL2; VH2VL2) VH: QVTLKESGPVLVKPTETLTLTCTVSGFSLTSNGVSWVRQPPGKALEWIAAISSGGSTYYNSAFKSRLSISRDTSKSQVVLTMTNMDPVDTATYYCARHRPFYFDYWGQGTLVTVSS VL: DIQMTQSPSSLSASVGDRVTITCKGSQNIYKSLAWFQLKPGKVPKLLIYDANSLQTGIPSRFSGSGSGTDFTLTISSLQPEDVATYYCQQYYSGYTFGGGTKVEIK ? 1.32

Reference source for all entries: patent US20150239980A1
